- Assay protocol: Thermodynamic solubility of the compound at pH 1
- Assay type: physicochemical
- Measurement context: buffer, read-out: Therm_solubility
Quantity kind: solubility thermodynamic (µg/mL)
Give the value, in units of µg/mL, as a plain number.

Cn1c(=O)c2c(nc3n2CCN(C2CCc4ccccc42)C3)n(C)c1=O (racemic); 1000
Cn1c(=O)c2c(nc3n2CCN(CCOc2ccccc2)C3)n(C)c1=O; 1100
Cn1c(=O)c2c(nc3n2CCN(CC(O)c2ccccc2)C3)n(C)c1=O (stereo not given); 1100
Cn1c(=O)c2c(nc3n2CCN(Cc2csc(-c4ccc(C(F)(F)F)cc4)n2)C3)n(C)c1=O; 200
Cn1c(=O)c2c(nc3n2CCN(CCc2ccc4c(c2)OCO4)C3)n(C)c1=O; 300
COc1ccc(Br)cc1CCN1CCn2c(nc3c2c(=O)n(C)c(=O)n3C)C1; 300
Cn1c(=O)c2c(nc3n2CCN(CCc2cc(C(F)(F)F)ccc2F)C3)n(C)c1=O; 400
Cn1c(=O)c2c(nc3n2CCN(CCCc2cccc(Br)c2)C3)n(C)c1=O; 100

Next compound, please.
Looking up Cn1c(=O)c2c(nc3n2CCN(CCc2cccc(Br)c2)C3)n(C)c1=O , I found its solubility thermodynamic recorded as 700

---

- Test system: Adenosine receptor A2a (Homo sapiens, UniProt P29274)
- Sequence (P29274 whole entry): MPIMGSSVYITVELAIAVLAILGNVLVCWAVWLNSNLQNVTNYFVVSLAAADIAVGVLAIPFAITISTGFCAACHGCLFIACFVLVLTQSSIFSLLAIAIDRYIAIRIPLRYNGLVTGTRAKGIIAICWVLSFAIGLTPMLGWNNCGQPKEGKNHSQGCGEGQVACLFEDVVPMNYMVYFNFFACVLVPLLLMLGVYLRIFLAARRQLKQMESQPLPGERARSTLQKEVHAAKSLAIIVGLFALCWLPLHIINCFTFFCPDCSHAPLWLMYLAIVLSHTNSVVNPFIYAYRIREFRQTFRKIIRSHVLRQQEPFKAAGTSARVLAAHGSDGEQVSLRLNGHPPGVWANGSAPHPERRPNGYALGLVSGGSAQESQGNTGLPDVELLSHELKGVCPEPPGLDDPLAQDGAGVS
- Assay protocol: Agonist activity at recombinant human A2A receptor expressed in CHO cells assessed as increase in forskolin-induced cAMP level at 10 uM preincubated for 20 mins prior to forskolin-stimulation measure after 5 mins by liquid scintillation counting method
- Format: functional, cell-based
Active and inactive are the calls of the source. The calls are words filed in the database; no cut-off is given here.
Quantity kind: Activity

Cn1c(=O)c2c(nc3n2CCN([C@@H]2CCCc4ccccc42)C3)n(C)c1=O; inactive
Cn1c(=O)c2c(nc3n2CCN(Cc2csc(-c4ccc(C(F)(F)F)cc4)n2)C3)n(C)c1=O; inactive
Cn1c(=O)c2c(nc3n2CCN(CCCc2ccc(Cl)cc2)C3)n(C)c1=O; inactive
Cn1c(=O)c2c(nc3n2CCN(Cc2csc(-c4cccs4)n2)C3)n(C)c1=O; inactive

---

- Test system: Adenosine receptor A2b (Homo sapiens)
- Assay protocol: Displacement of [3H]PSB-603 from human A2B receptor expressed in CHO cell membrane at 1 uM relative to control
- Assay type: cell membranes
So basically: Activity at 10% or higher? That is Criterion met. Lower than 10%? That is Criterion not met.

Solved cases (5 shown):
Cn1c(=O)c2c(nc3n2CCN(c2ccc(Cl)cc2)C3)n(C)c1=O; Criterion not met
Cc1cc(CN2CCn3c(nc4c3c(=O)n(C)c(=O)n4C)C2)n(C)n1; Criterion not met
Cn1c(=O)c2c(nc3n2CCN([C@@H]2CCc4ccccc42)C3)n(C)c1=O; Criterion not met
COc1ccc(Br)cc1CCN1CCn2c(nc3c2c(=O)n(C)c(=O)n3C)C1; Criterion not met
Cn1c(=O)c2c(nc3n2CCN(CC#Cc2cccc(Cl)c2)C3)n(C)c1=O; Criterion not met

// query Answer whether Activity of Cn1c(=O)c2c(nc3n2CCN(C2Cc4ccccc4C2)C3)n(C)c1=O is greater than or equal to 10%.
// result Criterion met

// query Answer whether Activity of Cn1c(=O)c2c(nc3n2CCN(CCc2ccccc2)C3)n(C)c1=O is greater than or equal to 10%.
// result Criterion met
